# Tested on: COLO 205 colon
# method.summary: NCI tumour cell line growth inhibition, 48 h; in the data active = GI50 below about 0.43 µM; inactive = the rest
Classes to choose from: active, inactive

The following compounds have reported results that may help.
[
  {
    "compound": "CCOC(=O)c1ccc(NC(=O)N2CC(C)OC(C)C2)cc1 (centres undefined)",
    "classification": "inactive"
  },
  {
    "compound": "N=C1C(c2nc(-c3ccc(Br)cc3)cs2)=C(O)CN1Cc1cccnc1",
    "classification": "inactive"
  },
  {
    "compound": "CCOc1cc2ncc(C#N)c(Nc3ccc(OCc4cccc(F)c4)c(Cl)c3)c2cc1NC(=O)CC1CCSS1 (centres undefined)",
    "classification": "inactive"
  },
  {
    "compound": "CN1CC[C@@H](c2c(O)cc(O)c3c(=O)cc(-c4ccccc4Cl)oc23)[C@@H](O)C1",
    "classification": "active"
  },
  {
    "compound": "COc1ccc2cc(C(=O)/C=C/c3cc(OC)c(OC)c(OC)c3)ccc2c1",
    "classification": "inactive"
  }
]

I'd appreciate the recorded outcome for `CS(=O)(=O)CCNCc1nc(-c2ccc3ncnc(Nc4ccc(F)c(Cl)c4)c3c2)cs1` from this test.
inactive

`COc1ccc(C(=O)/C(Br)=C/C(=O)O)cc1` ?
inactive

Follow-up entry: `Cc1ccc(CNc2c3ccccc3nc3ccccc23)cc1`
inactive

Same thing, different compound: `C=C1C(=O)O[C@H]2[C@H]1CC/C(Cn1cc(CNC(=O)Cc3cn(C(=O)c4ccc(Cl)cc4)c4ccc(OC)cc34)nn1)=C\CC[C@@]1(C)O[C@@H]21`
inactive

---

# Test system: LXFL 529 NSCLC
# method.summary: NCI tumour cell line growth inhibition, 48 h
List of TGI values.

[
  {
    "molecule": "O=c1c2ccccc2[nH]c(=S)n1-c1ccc(Br)cc1",
    "TGI": "> 100 µM"
  }
]

# lookup: TGI of `Cc1ccc(C(=O)N(C2CCCCC2)C2CCCCC2)cc1N=NN(C)C`
27.8 µM

And the next one, CCc1cccc(C(C)C)c1NC(=O)C(=O)C(Cc1nc2ccccc2[nH]c1=O)C(=O)OC (stereo not given) ?
> 100 µM

Also, CCCC/C=C1\CCC(CN2CCCCC2)C1=O (stereo not given) please.
3.26 µM

Again, but for `Cc1cc(C)nc(NS(=O)(=O)c2ccc(Nc3c4ccccc4nc4c(C(=O)Nc5ccc(S(=O)(=O)N=C(N)N)cc5)ccc(Cl)c34)cc2)n1`
72.4 µM

Would you kindly repeat that for `CCOc1ccccc1NC(=O)C(=O)CC(=O)c1c(C)n([O-])c2ccccc2[n+]1=O` ?
> 100 µM

Another: `O=C1C(=O)N(C(=O)c2ccc(Cl)c(Cl)c2)c2ccccc21`
> 100 µM

Likewise for `COc1cccc2cc(C)c(C(=O)c3ccccc3)nc12` ?
> 100 µM

What about this molecule? Cc1ccc(OCC(=O)N2N=C(c3ccccc3)CC2(O)c2ccccc2)cc1 (stereo not given)
> 100 µM

Then `Nc1ccn(CCOC(=O)c2ccccc2)c(=O)n1` ?
> 100 µM

Consider next the molecule `CCOC(=O)[C@@]1(C)C=C2O[C@@H]3OC4(CCCCC4)O[C@@H]3C2=C2C(O)=CC=C(O)[C@]21C(=O)OC` in the same way.
> 68 µM

Now the molecule `CC1=C(C(=O)Nc2c(C)cccc2C)C(c2ccc3c(c2)OCO3)C(C(=O)Nc2c(C)cccc2C)=C(C)N1`
43.9 µM

Can you handle CC(=O)C1CC(C)=CCC12C(=O)Nc1ccccc12 (stereo not given) next?
> 100 µM

Entry `N#CCC(=O)Nc1cccc(C(F)(F)F)c1` please
> 100 µM

Please answer likewise for `Cc1nc2c(nc1C)C(=O)c1cc(O)ccc1C2=O`
> 100 µM
